Biological target: recombinant Caspase-1 (Homo sapiens, UniProt P29466)
Sequence (P29466 120-404): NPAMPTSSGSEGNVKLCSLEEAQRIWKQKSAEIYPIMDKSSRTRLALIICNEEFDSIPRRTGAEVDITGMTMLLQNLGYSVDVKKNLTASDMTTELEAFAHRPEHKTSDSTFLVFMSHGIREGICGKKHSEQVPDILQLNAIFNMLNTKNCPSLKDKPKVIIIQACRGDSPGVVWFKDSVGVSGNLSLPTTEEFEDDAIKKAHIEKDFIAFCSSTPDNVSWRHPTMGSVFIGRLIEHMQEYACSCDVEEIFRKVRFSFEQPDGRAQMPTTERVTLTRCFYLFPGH
Test: Caspase Inhibitor Drug Screening Kit (BioVision), WAD-AFC substrate
Conditions: not active site titrated
pIC50: −log10 of the molar value.
readoutName: pIC50

# compound, testValue
measured = [
    ("CCC(C)[C@H](NC(=O)[C@H](CCC(=O)O)NC(=O)[C@@H](NC(=O)OCc1ccccc1)C(C)C)C(=O)N[C@H](/C=C/S(C)(=O)=O)CC(=O)O (some centres unmarked)", 5.57),
    ("CCC(C)[C@H](NC(=O)[C@H](CCC(=O)O)NC(=O)[C@@H](NC(=O)OCc1ccccc1)C(C)C)C(=O)N[C@H](/C=C(\\Cl)S(C)(=O)=O)CC(=O)O (some centres unmarked)", 5.41),
]
